test system: Escherichia coli; experiment: Antimicrobial activity against Escherichia coli MTCC 443 after 24 to 48 hr by broth microdilution method; type: functional
MIC for assorted compounds
Enter your answer as a number in µg/mL; do not include the unit.

Task: Answer with MIC of O=C(N[C@H](CO)[C@H](O)c1ccc([N+](=O)[O-])cc1)C(Cl)Cl [CHLORAMPHENICOL] measured for Escherichia coli.
Result: 50

Task: # lookup: Escherichia coli MIC, key = O=C1NC2=C(C(=O)CCC2)C(c2cc3cc(Cl)ccc3[nH]c2=O)N1 (centres undefined)
Result: 200

Task: Output reported MIC of the compound COc1ccc2[nH]c(=O)c(C3NC(=O)NC4=C3C(=O)CCC4)cc2c1 (centres undefined) on Escherichia coli.
Result: 100

Task: Report measured MIC on Escherichia coli; entry: CC1(C)CC(=O)C2=C(C1)NC(=O)NC2c1cc2cc(Cl)ccc2[nH]c1=O (centres undefined)
Result: 100

Task: State measured MIC of the compound CC1(C)CC(=O)C2=C(C1)NC(=O)NC2c1cc2ccccc2[nH]c1=O (centres undefined) with Escherichia coli.
Result: 100

Task: Report measured MIC on Escherichia coli; entry: O=C1NC2=C(C(=O)CCC2)C(c2cc3ccccc3[nH]c2=S)N1 (centres undefined)
Result: 500

Task: With Escherichia coli as the test system, provide measured MIC for this compound: CC1(C)CC(=O)C2=C(C1)NC(=S)NC2c1cc2cc(Cl)ccc2[nH]c1=O (centres undefined)
Result: 125

Task: # return MIC of O=C1CCCC2=C1C(c1cc3cc(Cl)ccc3[nH]c1=O)NC(=S)N2 (centres undefined) (system: Escherichia coli)
Result: 100

Task: Print Escherichia coli MIC for CC1(C)S[C@@H]2[C@H](NC(=O)[C@H](N)c3ccccc3)C(=O)N2[C@H]1C(=O)O [AMPICILLIN] .
Result: 100

###

system: Bacillus subtilis; test: Antimicrobial activity against Bacillus subtilis MTCC 441 after 24 to 48 hr by broth microdilution method; format: functional
The compounds listed here are annotated with their MIC.
Report only the number, with the unit µg/mL understood.

Solved entries (count: 4):
1. Cc1ccc2[nH]c(=O)c(C3NC(=S)NC4=C3C(=O)CC(C)(C)C4)cc2c1 (stereo not given) ... 100
2. CC1(C)CC(=O)C2=C(C1)NC(=S)NC2c1cc2ccccc2[nH]c1=S (stereo not given) ... 250
3. CC1(C)CC(=O)C2=C(C1)NC(=O)NC2c1cc2ccccc2[nH]c1=S (stereo not given) ... 500
4. COc1ccc2[nH]c(=O)c(C3NC(=O)NC4=C3C(=O)CC(C)(C)C4)cc2c1 (stereo not given) ... 250

Next compound, please.
Task: Hello, please tell me recorded MIC for this one: CC1(C)CC(=O)C2=C(C1)NC(=S)NC2c1cc2ccccc2[nH]c1=O (stereo not given)
Result: 500

###

# MIC per entry
tested on: Streptococcus pneumoniae; test: Antimicrobial activity against Streptococcus pneumoniae MTCC 1936 after 24 to 48 hr by broth microdilution method; type: functional
A number alone suffices; assume µg/mL.

Solved cases below.
1) Cc1ccc2[nH]c(=O)c(C3NC(=O)NC4=C3C(=O)CC(C)(C)C4)cc2c1 (stereo not given) ... 100
2) Cc1ccc2[nH]c(=O)c(C3NC(=S)NC4=C3C(=O)CC(C)(C)C4)cc2c1 (stereo not given) ... 100
3) CC1(C)S[C@@H]2[C@H](NC(=O)[C@H](N)c3ccccc3)C(=O)N2[C@H]1C(=O)O ... 100
4) COc1ccc2[nH]c(=O)c(C3NC(=O)NC4=C3C(=O)CCC4)cc2c1 (stereo not given) ... 250
5) COc1ccc2[nH]c(=O)c(C3NC(=S)NC4=C3C(=O)CCC4)cc2c1 (stereo not given) ... 200

Task: Please indicate MIC recorded for CC1(C)CC(=O)C2=C(C1)NC(=O)NC2c1cc2cc(Cl)ccc2[nH]c1=O (stereo not given)
Result: 500

Task: Indicate its recorded MIC; the compound in question is Cc1ccc2[nH]c(=O)c(C3NC(=S)NC4=C3C(=O)CCC4)cc2c1 (stereo not given)
Result: 500

Task: Provide one value: measured MIC of CC1(C)CC(=O)C2=C(C1)NC(=S)NC2c1cc2ccccc2[nH]c1=O (stereo not given)
Result: 500

Task: Check the records and state MIC for Cc1ccc2[nH]c(=O)c(C3NC(=O)NC4=C3C(=O)CCC4)cc2c1 (stereo not given)
Result: 100

Task: In one line, give reported MIC of the entry Cc1ccc2[nH]c(=O)c(C3NC(=S)N(c4ccccc4)C4=C3C(=O)CCC4)cc2c1 (stereo not given) .
Result: 500

###

system: Salmonella typhi; experiment: Antimicrobial activity against Salmonella enterica subsp. enterica serovar Typhi MTCC 98 after 24 to 48 hr by broth microdilution method; type: functional
reported property: MIC (µg/mL)
// units = µg/mL; emit number, no label

See these solved cases before continuing.
1. CC1(C)CC(=O)C2=C(C1)NC(=S)NC2c1cc2cc(Cl)ccc2[nH]c1=O (stereo not drawn) ... 25
2. COc1ccc2[nH]c(=O)c(C3NC(=O)NC4=C3C(=O)CCC4)cc2c1 (stereo not drawn) ... 250
3. O=C1NC2=C(C(=O)CCC2)C(c2cc3ccccc3[nH]c2=S)N1 (stereo not drawn) ... 200

Task: Report value only: MIC, Salmonella typhi, O=C1NC2=C(C(=O)CCC2)C(c2cc3cc(Cl)ccc3[nH]c2=O)N1 (stereo not drawn)
Result: 250

Task: Report value only: MIC, Salmonella typhi, CC1(C)CC(=O)C2=C(C1)NC(=S)NC2c1cc2ccccc2[nH]c1=O (stereo not drawn)
Result: 150

Task: Quote MIC with test system Salmonella typhi for CC1(C)CC(=O)C2=C(C1)NC(=S)NC2c1cc2ccccc2[nH]c1=S (stereo not drawn)
Result: 100

Task: Lab note: record MIC of O=C1CCCC2=C1C(c1cc3ccccc3[nH]c1=S)NC(=S)N2 (stereo not drawn) tested on Salmonella typhi.
Result: 200

Task: Given Cc1ccc2[nH]c(=O)c(C3NC(=S)NC4=C3C(=O)CC(C)(C)C4)cc2c1 (stereo not drawn) , report its MIC on Salmonella typhi.
Result: 150

Task: GET MIC where system = Salmonella typhi and item = CC1(C)CC(=O)C2=C(C1)N(c1ccccc1)C(=S)NC2c1cc2ccccc2[nH]c1=O (stereo not drawn)
Result: 200

Task: Send back Salmonella typhi MIC of CC1(C)S[C@@H]2[C@H](NC(=O)[C@H](N)c3ccccc3)C(=O)N2[C@H]1C(=O)O only.
Result: 100

Task: Give MIC; test system Salmonella typhi; compound Cc1ccc2[nH]c(=O)c(C3NC(=S)NC4=C3C(=O)CCC4)cc2c1 (stereo not drawn)
Result: 500

Task: Recall the reported MIC of Cc1ccc2[nH]c(=O)c(C3NC(=O)NC4=C3C(=O)CCC4)cc2c1 (stereo not drawn) on Salmonella typhi and write it down.
Result: 500

Task: Send back Salmonella typhi MIC of CC1(C)CC(=O)C2=C(C1)NC(=O)NC2c1cc2ccccc2[nH]c1=O (stereo not drawn) only.
Result: 250

Task: Retrieve MIC on Salmonella typhi; query COc1ccc2[nH]c(=O)c(C3NC(=S)NC4=C3C(=O)CCC4)cc2c1 (stereo not drawn)
Result: 125

Task: GET MIC | system: Salmonella typhi | item: Cc1ccc2[nH]c(=O)c(C3NC(=S)N(c4ccccc4)C4=C3C(=O)CCC4)cc2c1 (stereo not drawn)
Result: 250

Task: Tell me MIC of Cc1ccc2[nH]c(=O)c(C3NC(=O)NC4=C3C(=O)CC(C)(C)C4)cc2c1 (stereo not drawn) when tested on Salmonella typhi.
Result: 250

Task: Give MIC for CC1(C)CC(=O)C2=C(C1)NC(=O)NC2c1cc2ccccc2[nH]c1=S (stereo not drawn) tested on Salmonella typhi.
Result: 500

Task: State MIC on Salmonella typhi. Entry: COc1ccc2[nH]c(=O)c(C3NC(=O)NC4=C3C(=O)CC(C)(C)C4)cc2c1 (stereo not drawn)
Result: 150

###

test system: Escherichia coli; experiment: Antimicrobial activity against Escherichia coli MTCC 443 after 24 to 48 hr by broth microdilution method; type: functional
Reported values of MIC for individual entries
Please state the figure in µg/mL; there is no need to write the unit.

The following compounds have reported results that may help.
1. CCn1cc(C(=O)O)c(=O)c2cc(F)c(N3CCNCC3)cc21 [NORFLOXACIN] ... 10
2. CC1(C)CC(=O)C2=C(C1)NC(=O)NC2c1cc2ccccc2[nH]c1=S (stereo not given) ... 500
3. O=C1CCCC2=C1C(c1cc3ccccc3[nH]c1=O)NC(=S)N2c1ccccc1 (stereo not given) ... 150
4. COc1ccc2[nH]c(=O)c(C3NC(=O)NC4=C3C(=O)CC(C)(C)C4)cc2c1 (stereo not given) ... 100
5. CC1(C)CC(=O)C2=C(C1)NC(=S)NC2c1cc2ccccc2[nH]c1=S (stereo not given) ... 100

Task: Write down MIC measured for item Cc1ccc2[nH]c(=O)c(C3NC(=O)NC4=C3C(=O)CC(C)(C)C4)cc2c1 (stereo not given)
Result: 100

Task: Identify measured MIC corresponding to CC1(C)CC(=O)C2=C(C1)N(c1ccccc1)C(=S)NC2c1cc2ccccc2[nH]c1=O (stereo not given)
Result: 250

Task: # return recorded MIC for input CC1(C)CC(=O)C2=C(C1)NC(=S)NC2c1cc2ccccc2[nH]c1=O (stereo not given)
Result: 125

Task: Provide MIC value for the following compound: Cc1ccc2[nH]c(=O)c(C3NC(=S)NC4=C3C(=O)CC(C)(C)C4)cc2c1 (stereo not given)
Result: 250

Task: Kindly indicate its recorded MIC. Item: O=C1CCCC2=C1C(c1cc3ccccc3[nH]c1=S)NC(=S)N2 (stereo not given)
Result: 250

Task: // fetch MIC given entry Cc1ccc2[nH]c(=O)c(C3NC(=O)NC4=C3C(=O)CCC4)cc2c1 (stereo not given)
Result: 500
